Below are IC50 values measured for EED (1-441)-His protein (Homo sapiens (Human)).
// unit must come after the numeric part

>  <MOLECULE>
Cc1ncc(-c2cnc(NCc3c(F)ccc4c3CCO4)n3cnc(CO)c23)c(C)n1 [Example 8]

>  <IC50>
11.6 nM

$$$$
>  <MOLECULE>
Cc1nc(N2CC(C)NC(C)C2)ncc1-c1cnc(NCc2c(F)ccc3c2CCO3)n2cnc(C#N)c12 (stereo not shown) [Example 83]

>  <IC50>
2.3 nM

$$$$
>  <MOLECULE>
Fc1ccc2c(c1CNc1ncc(-c3ccc(CN4CCCC4)cc3)c3cncn13)CCO2 [Example 39]

>  <IC50>
10.5 nM

$$$$

Would you kindly share the measured IC50 for CNC(=O)c1ncn2c(NCc3c(F)ccc4c3CCO4)ncc(-c3cccnc3C)c12 [Example 2] ?
12.3 nM
